Data credit: patent US12151028B2

test.name: physchem
test.parameters: pH 2.92, aqueous buffer
property.label: solubility (µg/mL)
Number only, in µg/mL; omit the unit.

Which solubility reading was recorded for the molecule O=C1CN=C(c2ccccc2Cl)c2cc([N+](=O)[O-])ccc2N1 [Clonazepam, clonazepam] ?
23
